# System: UO-31
# assay.method.text: NCI tumour cell line growth inhibition, 48 h
Activity calls are given as the source filed them. Rule as the data show it: active = GI50 up to about 1.1 µM and inactive = higher.
Below, each entry is listed alongside its reported GI50.
endpoint.name: GI50

{"columns": ["compound", "endpoint.name", "reported.measurement"],
 "data": [
  ["O=C(Nc1ccccc1)c1nn(-c2cc(S(=O)(=O)O)c([N+](=O)[O-])cc2Cl)[n+](-c2cc(S(=O)(=O)[O-])c([N+](=O)[O-])cc2Cl)n1", "GI50", "> 100 µM (inactive)"],
  ["CCCCOC(=O)C1CN2C(=NC1(C(F)(F)F)C(F)(F)F)Sc1ccccc12 (stereo unspecified)", "GI50", "19.2 µM (inactive)"],
  ["Cc1cc([N+](=O)[O-])c(C)c(Br)c1C", "GI50", "> 100 µM (inactive)"],
  ["CS(=O)(=O)OC1CN2CCC1CC2 (stereo unspecified)", "GI50", "> 100 µM (inactive)"],
  ["COc1cc(/C=C/c2ccc(OC)c(OC)c2)oc(=O)c1", "GI50", "> 250 µM (inactive)"],
  ["C/C(=N\\Nc1nc2ccccc2s1)c1ccc2ccccc2n1", "GI50", "53.7 µM (inactive)"],
  ["O=C(/C=C/c1ccc(O)c(O)c1)Oc1ccccc1", "GI50", "7.43 µM (inactive)"],
  ["NC1=C(Cl)C(=O)c2ccccc2C1=O", "GI50", "13.7 µM (inactive)"],
  ["CC(=O)c1c2c(cc3c1CC1(C3)Cc3cc4c(c(C(=O)O)c3C1)CCCC4)CCCC2.CC(N)c1ccccc1 (stereo unspecified)", "GI50", "18.6 µM (inactive)"],
  ["CN(C(=O)C12C3C4C5C3C1(C(=O)C13C6C7C8C6C1C8C73)C5C42)C(C)(C)C (stereo unspecified)", "GI50", "> 50 µM (inactive)"],
  ["CC(=O)OCCOCBr", "GI50", "> 100 µM (inactive)"]
]}

----------
# Tested on: SW-620
# assay.method.text: NCI tumour cell line growth inhibition, 48 h
Active and inactive are the calls of the source. No stated cut-off is given here; in the data, active = GI50 up to about 1.1 µM and inactive = higher.

{"columns": ["compound", "GI50"],
 "data": [
  ["OC(c1cc(-c2ccc(C(F)(F)F)cc2)nc(C(F)(F)F)c1)C1CCCCN1 (stereo not given) [ENPIROLINE PHOSPHATE]", "1.85 µM (inactive)"],
  ["O=c1oc2nc(-c3ccccc3)cc(C(F)(F)F)c2n1Cc1ccccc1", "6.5 µM (inactive)"],
  ["N/N=C(\\c1nc2ccc([N+](=O)[O-])cc2nc1O)C(O)c1ccc(Cl)c(Cl)c1 (stereo not given)", "56.9 µM (inactive)"],
  ["Cc1ccc2c(ccc(/C=C\\c3cc(C)c4cccnc4c3O)[n+]2C)c1", "1.66 µM (inactive)"],
  ["CCOC(=O)C(NC(=O)CC)(Nc1ccc(S(=O)(=O)Nc2nc(C)cc(C)n2)cc1)C(F)(F)F (stereo not given)", "> 100 µM (inactive)"]
]}

----------
# Test system: SF-539
# assay.method.text: NCI tumour cell line growth inhibition, 48 h
Activity calls are given as the source filed them. Cut-off read from the data, not from the text of the source: active = GI50 up to about 1.1 µM and inactive = higher.
Below, each entry is listed alongside its reported GI50.

{"columns": ["compound", "GI50"],
 "data": [
  ["Oc1cc(-c2ccc3c(c2)OCO3)nc2cc3c(cc12)OCO3", "23 µM (inactive)"],
  ["CCOc1ncn(-c2ccc(NC(=S)NC34CC5CC(CC(C5)C3)C4)cc2)n1", "> 100 µM (inactive)"],
  ["CC(=O)OC1CC[C@@]2(C)C(CC[C@]3(C)C2CC=C2[C@@H]4C(C)[C@H](C)CCC4(C)CCC23C)[C@@]1(C)C(=O)O (some centres undefined)", "21.4 µM (inactive)"],
  ["CCOP(=O)(OCC)c1ccc(=O)[nH]c1-c1cccs1", "> 100 µM (inactive)"],
  ["CC(C)C1=CC23CCC4C(C)(C(=O)O)CCCC4(C)C2CC1C1C(=O)N(c2cccc(N4C(=O)C5C6CC7C8(C)CCCC(C)(C(=O)O)C8CCC7(C=C6C(C)C)C5C4=O)c2)C(=O)C13 (centres undefined)", "9.08 µM (inactive)"],
  ["O=c1oc2nc(-c3ccccc3)cc(C(F)(F)F)c2n1Cc1ccccc1", "7.5 µM (inactive)"],
  ["Nc1n/c(=N\\c2ccccc2)ss1", "> 100 µM (inactive)"],
  ["COc1cccc(/N=N/C(=N\\NC(=O)c2ccc(C)cc2)c2ccc(N(CCC#N)CCC#N)cc2C)c1", "> 100 µM (inactive)"],
  ["COc1cc2oc(-c3ccc4c(c3)OCO4)c(OC)c(=O)c2c(OC)c1O", "> 100 µM (inactive)"]
]}
